Each entry below carries its recorded Stability of Cannabinoids in AB Red.
Protocol: Stability of cannabinoid and Vitamin E components of Beverage 2 (AB Red) stored at 8° C. and 21-25° C., LCMSMS over 570 days
Measurement Parameters: 8° C., 60 days

# Compound, Scale Unit, Stability of Cannabinoids in AB Red
records = [
    ("CCCCCc1cc2c(c(O)c1C(=O)O)[C@@H]1C=C(C)CC[C@H]1C(C)(C)O2 [D9 THCA, delta-9-tetrahydrocannabinolic acid]", "µg/mL", 1.32),
    ("CCCCCc1cc(O)c(C/C=C(\\C)CCC=C(C)C)c(O)c1", "µg/mL", 4.70),
    ("C=C(C)[C@@H]1CCC(C)=C[C@H]1c1c(O)cc(CCCCC)c(C(=O)O)c1O", "µg/mL", 1.66),
    ("CCCCCc1cc(O)c2c(c1)OC1(C)CCC3C1C2C3(C)C (stereo not drawn)", "µg/mL", 0.491),
    ("CCCc1cc(O)c2c(c1)OC(C)(C)[C@@H]1CCC(C)=C[C@@H]21 [THCV, delta-9-tetrahydrocannabivarin]", "µg/mL", 3.11),
    ("CCCCCc1cc(O)c2c(c1)OC(C)(CCC=C(C)C)C=C2 (stereo not drawn)", "µg/mL", 0.278),
    ("CCCCCc1cc(O)c2c(c1)OC(C)(C)c1ccc(C)cc1-2", "µg/mL", 2.73),
    ("CCCCCc1cc(O)c2c(c1)OC(C)(C)[C@@H]1CCC(C)=C[C@@H]21 [D9 THC, delta-9-tetrahydrocannabinol, reference compound]", "µg/mL", 12.5),
    ("C=C(C)[C@@H]1CCC(C)=C[C@H]1c1c(O)cc(CCC)cc1O", "µg/mL", 0.199),
]

----------
Reported Stability in AB White, 21-25° C. (content by LCMSMS) values are given for each entry in this list.
Protocol: Stability of cannabinoid and Vitamin E components of Beverage 1 (AB White) stored at 8° C. and 21-25° C., LCMSMS over 570 days
Format: physicochemical
Measurement Parameters: beverage stored at 21-25° C., day 120
Observed Property: Stability in AB White, 21-25° C. (content by LCMSMS) (µg/mL)

# Molecule, Reported Value
measured = [
    ("CCCCCc1cc2c(c(O)c1C(=O)O)[C@@H]1C=C(C)CC[C@H]1C(C)(C)O2 [D9 THCA, delta-9-tetrahydrocannabinolic acid]", 0.894),
    ("CCCCCc1cc(O)c(C/C=C(\\C)CCC=C(C)C)c(O)c1", 4.59),
    ("CCCCCc1cc(O)c2c(c1)OC(C)(C)[C@@H]1CCC(C)=C[C@@H]21 [D9 THC, delta-9-tetrahydrocannabinol, reference compound]", 11.7),
    ("CCCCCc1cc(O)c2c(c1)OC1(C)CCC3C1C2C3(C)C (stereo not drawn)", 0.516),
    ("CCCCCc1cc(O)c2c(c1)OC(C)(CCC=C(C)C)C=C2 (stereo not drawn)", 0.318),
    ("CCCc1cc(O)c2c(c1)OC(C)(C)[C@@H]1CCC(C)=C[C@@H]21 [THCV, delta-9-tetrahydrocannabivarin]", 3.45),
    ("C=C(C)[C@@H]1CCC(C)=C[C@H]1c1c(O)cc(CCC)cc1O", 0.141),
    ("C=C(C)[C@@H]1CCC(C)=C[C@H]1c1c(O)cc(CCCCC)c(C(=O)O)c1O", 1.66),
    ("CCCCCc1cc(O)c2c(c1)OC(C)(C)c1ccc(C)cc1-2", 2.67),
]
